Study Target: Arginase-2, mitochondrial (Homo sapiens) (UniProt P78540)
Sequence (whole entry): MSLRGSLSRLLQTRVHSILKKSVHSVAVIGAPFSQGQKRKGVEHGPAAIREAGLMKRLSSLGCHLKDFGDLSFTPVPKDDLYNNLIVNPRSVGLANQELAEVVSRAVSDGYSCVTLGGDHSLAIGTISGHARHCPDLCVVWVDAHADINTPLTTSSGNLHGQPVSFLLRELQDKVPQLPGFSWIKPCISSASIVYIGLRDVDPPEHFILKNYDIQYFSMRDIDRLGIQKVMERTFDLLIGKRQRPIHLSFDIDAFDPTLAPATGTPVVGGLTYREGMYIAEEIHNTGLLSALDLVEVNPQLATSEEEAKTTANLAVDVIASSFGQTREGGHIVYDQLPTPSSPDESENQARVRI
Assay Explanation: in vitro enzyme assay to detect the production of urea directly proportional to the activity of Arginase II; also: in the data most compounds retested in dose-response had high values
Format: functional
Parameters: scale not given: direction of the effect not stated beside the values
Measurement Setup: 33.3 µM
Please go through the items and note down their Percent Effect.
Just the number in %, nothing appended.

Note Percent Effect for the compound shown: CC(C)c1ncc(CN2C[C@@H](CN3CCC(CO)CC3)[C@@H](CO)C2)cn1
1.56

Note Percent Effect for the compound shown: Cc1ccc(NC2CCN(C(=O)c3cc[nH]n3)CC2)nn1
1.53

Note Percent Effect for the compound shown: COC(=O)c1cc(C(=O)N2CCCCCC2)n(-c2ccccc2)n1
1.92

Note Percent Effect for the compound shown: COCC(=O)N1CCC(c2nc3ccc(-c4ccccc4)cn3n2)CC1
4.79

Note Percent Effect for the compound shown: O=C1C(NS(=O)(=O)c2cc(F)cc(F)c2)CCN1Cc1ccccc1 (stereo not drawn)
1.52

Note Percent Effect for the compound shown: CCCS(=O)(=O)N1CCC(NC(=O)c2cc(C)c(CC)s2)CC1
-2.08

Note Percent Effect for the compound shown: CC(=O)Nc1ncc(S(=O)(=O)Nc2ccc(F)cc2)s1
-0.88

Note Percent Effect for the compound shown: COc1ccccc1OCC(=O)NS(=O)(=O)c1ccccc1F
-0.952

Note Percent Effect for the compound shown: CC(C)CN1C(=O)c2ccc(C(=O)NCCc3c[nH]cn3)cc2C1=O
-9.68

Note Percent Effect for the compound shown: COCC(NC(=O)c1ccc[nH]1)c1cccc(C(F)(F)F)c1 (stereo not drawn)
32.3

Note Percent Effect for the compound shown: COc1cccc(N2CCN(CC(O)c3cc(C)sc3C)CC2)c1 (stereo not drawn)
-2.55

Note Percent Effect for the compound shown: Cc1cc(C(=O)N2CCCCC2C)ccc1NCC(=O)N1CCOCC1 (stereo not drawn)
5.69

Note Percent Effect for the compound shown: CSc1ncccc1C(=O)N1CCC(c2nc3c(C)cccc3[nH]2)CC1
-5.52

Note Percent Effect for the compound shown: Cc1ccc(C)n1-c1ccc(C(=O)NCCNc2ncccn2)cc1
-6.83

Note Percent Effect for the compound shown: O=C(NCc1ccccn1)[C@@H]1CCO[C@@H]2CCN(Cc3ccoc3)C[C@H]21
0.955

Note Percent Effect for the compound shown: CCNC(=O)N1CCCCC1CCNS(C)(=O)=O (stereo not drawn)
-3.33

Note Percent Effect for the compound shown: O=C(CCn1cnnc1)N1CCCC(c2ncc[nH]2)C1 (stereo not drawn)
2.27

Note Percent Effect for the compound shown: CC(C)[C@H](NC(=O)NC1CCS(=O)(=O)C1)C(=O)NCc1cccnc1 (stereo partly drawn)
-5.46

Note Percent Effect for the compound shown: CCC1=N[C@@]2(CC[C@@H]3CN(C(=O)NCC(C)C)C[C@@H]32)C(=O)N1CC(C)C
-55

Note Percent Effect for the compound shown: Cn1cc(CN2CCCN(C(=O)c3ccc4c(c3)COC4)CC2)cn1
-2.16

Note Percent Effect for the compound shown: CCN1C(=O)C(C)(C)c2cc(NC(=O)c3ccco3)ccc21
-13.8

Note Percent Effect for the compound shown: Cn1cc(CN2CCn3c(CNC(=O)c4cccn4C)cnc3C2)cn1
-52.1

Note Percent Effect for the compound shown: O=C(NCCO)Nc1cccc(Cl)c1SC(F)F
0.883

====

Study Target: Tyrosyl-tRNA synthetase, putative (Trypanosoma cruzi (strain CL Brener))
Assay Explanation: Trypanosoma cruzi tyrosyl tRNA synthetase (TcYRS) SOP
Assay type: functional
Parameters: scale not given: direction of the effect not stated beside the values
Measurement Setup: 30 µM
Please go through the items and note down their Percent Effect.
Just the number in %, nothing appended.

Retrieve Percent Effect on Tyrosyl-tRNA synthetase, putative (Trypanosoma cruzi (strain CL Brener)); query c1cc2n(n1)CC(CNCc1ccc(OCC3CC3)nc1)CN2 (stereo unspecified)
24.4

Retrieve Percent Effect on Tyrosyl-tRNA synthetase, putative (Trypanosoma cruzi (strain CL Brener)); query CCc1ccc(S(=O)(=O)Nc2cc(OC)c(OC)cc2C(=O)O)s1
-1.24

Retrieve Percent Effect on Tyrosyl-tRNA synthetase, putative (Trypanosoma cruzi (strain CL Brener)); query CC1CCN(CCNC(=O)c2ccccc2N2CCOCC2)CC1
16.1

Retrieve Percent Effect on Tyrosyl-tRNA synthetase, putative (Trypanosoma cruzi (strain CL Brener)); query CCn1c(C)nnc1CN(C)C1CCN(Cc2cnc(C)cn2)C1 (stereo unspecified)
18.5

Retrieve Percent Effect on Tyrosyl-tRNA synthetase, putative (Trypanosoma cruzi (strain CL Brener)); query CC(=O)N1CCC2(CC1)CC[C@@]1(C(=O)N(C)C)CN(S(C)(=O)=O)C[C@@H]21
18.5

Retrieve Percent Effect on Tyrosyl-tRNA synthetase, putative (Trypanosoma cruzi (strain CL Brener)); query c1ccc(OCC2CC3(CCN(Cc4ccncc4)CC3)CO2)nc1 (stereo unspecified)
7.69

Retrieve Percent Effect on Tyrosyl-tRNA synthetase, putative (Trypanosoma cruzi (strain CL Brener)); query O=C(Cc1ccsc1)N1CCC(n2nc(-c3ccco3)ccc2=O)CC1
6.49

Retrieve Percent Effect on Tyrosyl-tRNA synthetase, putative (Trypanosoma cruzi (strain CL Brener)); query c1ccc(CC2CCN(Cc3ccnc(-c4cccnc4)n3)CC2)cc1
6.49

Retrieve Percent Effect on Tyrosyl-tRNA synthetase, putative (Trypanosoma cruzi (strain CL Brener)); query Cc1cc(C)n(CC2CCCN2C(=O)Cc2c(C)noc2C)n1 (stereo unspecified)
13.6

Retrieve Percent Effect on Tyrosyl-tRNA synthetase, putative (Trypanosoma cruzi (strain CL Brener)); query c1ccc2sc(CN3CCOC(Cn4cncn4)C3)nc2c1 (stereo unspecified)
-6.17

Retrieve Percent Effect on Tyrosyl-tRNA synthetase, putative (Trypanosoma cruzi (strain CL Brener)); query CNC(=O)CS(=O)(=O)Cc1cc(Cl)c2c(c1)OCCCO2
24.1

====

Study Target: Tyrosyl-tRNA synthetase, putative (Trypanosoma cruzi (strain CL Brener)) (UniProt Q4DSP6)
Sequence (Q4DSP6 as listed by the source): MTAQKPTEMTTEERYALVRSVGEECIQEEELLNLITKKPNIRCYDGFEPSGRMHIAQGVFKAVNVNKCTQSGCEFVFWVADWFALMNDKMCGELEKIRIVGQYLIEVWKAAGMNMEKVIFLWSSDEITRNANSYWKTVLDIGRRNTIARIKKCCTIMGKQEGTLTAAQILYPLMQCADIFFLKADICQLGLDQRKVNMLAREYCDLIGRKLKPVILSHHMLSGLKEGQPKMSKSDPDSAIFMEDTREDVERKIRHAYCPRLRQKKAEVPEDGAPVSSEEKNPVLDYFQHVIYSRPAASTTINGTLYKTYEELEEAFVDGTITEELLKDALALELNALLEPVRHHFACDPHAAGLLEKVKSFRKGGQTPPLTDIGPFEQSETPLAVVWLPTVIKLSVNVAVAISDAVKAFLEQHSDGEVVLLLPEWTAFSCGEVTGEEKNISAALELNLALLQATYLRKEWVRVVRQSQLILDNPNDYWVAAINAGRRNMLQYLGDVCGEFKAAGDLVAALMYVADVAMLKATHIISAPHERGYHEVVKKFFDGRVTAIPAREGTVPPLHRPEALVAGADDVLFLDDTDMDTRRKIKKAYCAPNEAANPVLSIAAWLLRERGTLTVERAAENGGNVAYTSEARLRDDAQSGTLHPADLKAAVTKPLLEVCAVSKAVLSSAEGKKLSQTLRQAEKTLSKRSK
Assay Explanation: Trypanosoma cruzi tyrosyl tRNA synthetase (TcYRS) _High Tyrosine SOP; also: in the data most compounds retested in dose-response had high values
Format: functional
Set-up: scale not given: direction of the effect not stated beside the values
Measurement Setup: 30 µM
Metric: Percent Effect (%)
Just the number in %, nothing appended.

Note Percent Effect for the compound shown: Cc1nn(C)c(C)c1C1CCCN1C(=O)CCCn1cccn1 (centres undefined)
0.493

Note Percent Effect for the compound shown: Fc1cccc(N2CCCC3(C2)CN(c2ncccn2)CCO3)c1 (centres undefined)
7.41

Note Percent Effect for the compound shown: CC(NCc1ccc(Cl)o1)c1nnc2n1CCCC2 (centres undefined)
6.93

Note Percent Effect for the compound shown: O=C1CCC2(CCN(Cc3cc(F)cc(F)c3)CC2)CN1CCO
3.16

Note Percent Effect for the compound shown: O=C(NCc1cccnc1)C1=NOC2(CCN(S(=O)(=O)C3CC3)C2)C1 (centres undefined)
-3.12

Note Percent Effect for the compound shown: CCC(=O)N1CCN(Cc2cc(-c3ccncc3)nn2C)CC1
4.3

Note Percent Effect for the compound shown: COc1ccccc1C(=O)N1Cc2cc(C)ccc2OCC1CN(C)C (centres undefined)
2.15

Note Percent Effect for the compound shown: Cc1nc(C2(NCC(=O)NCCc3cccs3)CCCC2)no1
2.13

Note Percent Effect for the compound shown: CCOc1cccc(CNC(=O)NCC(O)c2cccc(F)c2)c1 (centres undefined)
7.39

Note Percent Effect for the compound shown: CC(=O)NCC(=O)N1CC[C@H](OCC2CC2)[C@@H]1Cc1cccnc1
1.04

Note Percent Effect for the compound shown: CS(=O)(=O)CCN1CCC2(CCCN(C3CCOCC3)C2=O)C1 (centres undefined)
2.08

Note Percent Effect for the compound shown: CCn1cnnc1C1CCN(C(=O)c2ccc(C(=O)OC)s2)CC1
4.85

Note Percent Effect for the compound shown: COc1cc(C)nc(N2CCN(C(=O)c3ccccc3C)CC2)n1
5.42

Note Percent Effect for the compound shown: CCCn1c(C)c(CC(=O)NC)c2c1CC(C)(C)CC2=O
5.38

Note Percent Effect for the compound shown: Cc1ncnc2c1CCN(Cc1cccs1)CC2
8.33

Note Percent Effect for the compound shown: COc1ncccc1CN1Cc2nnn(C)c2C(COCC2CC2)C1 (centres undefined)
4.23

Note Percent Effect for the compound shown: CC(C)(C)NC(=O)C1CSCN1S(=O)(=O)c1cccc(F)c1 (centres undefined)
3.23

Note Percent Effect for the compound shown: COCCN1CC[C@@H]2OC[C@H](C(=O)NCc3cccs3)C[C@@H]2C1
-2.16

Note Percent Effect for the compound shown: c1cncc(COCc2nnc3n2CCN(Cc2ccoc2)C3)c1
6.45

Note Percent Effect for the compound shown: Cc1cc(C)n(C2CN(CC(O)COc3ccc(F)cc3)C2)n1 (centres undefined)
4.85

Note Percent Effect for the compound shown: O=C(CCO)N1CCOC2(CCCN(C(=O)c3ccco3)C2)C1 (centres undefined)
-12.9

Note Percent Effect for the compound shown: Cc1nc(C2CCCN2C(=O)c2ccccc2)ncc1C(N)=O (centres undefined)
5.32

Note Percent Effect for the compound shown: Cc1ccc(S(=O)(=O)NCCNC(=O)c2ccoc2)cc1F
3.83

Note Percent Effect for the compound shown: Cc1ccc(CC(=O)N2CC[C@@H]3CN(CCN(C)C)CCO[C@@H]3C2)cc1
4.32
